# credit: the supplement of paper PMC6555819

Each entry below lists one item and its recorded PBM binding z-score value.
Test system: FXR:RXRa (NR concentration 270 nM, RXRa partner concentration 90 nM)
METHOD: PBM binding z-score (relative to random genomic background probes); higher = stronger binding; sequences stand for … in GC…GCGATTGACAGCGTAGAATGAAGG
MEASURED QUANTITY: PBM binding z-score

INSERT INTO results (construct_sequence, measured_target, numeric_readout) VALUES
  ('CCGACTGGGGCAAAGGTTACCATTCTCAGTACGA', 'FXR:RXRa (NR concentration 270 nM, RXRa partner concentration 90 nM)', 1.49),
  ('GCGACTGGGGCATTAGCAGGTTACCATAACTTAA', 'FXR:RXRa (NR concentration 270 nM, RXRa partner concentration 90 nM)', -0.284),
  ('TCATATAGGTAAAAGGTGAAAGTAGGTGTGGTAA', 'FXR:RXRa (NR concentration 270 nM, RXRa partner concentration 90 nM)', 2.28),
  ('CGTCCAAGGTCAAAGGTCAGTGGAGAGATGACGG', 'FXR:RXRa (NR concentration 270 nM, RXRa partner concentration 90 nM)', 8.17),
  ('AGAACGAGGGCAATGAGTTGTTAGCACGGGTGGC', 'FXR:RXRa (NR concentration 270 nM, RXRa partner concentration 90 nM)', 0.161),
  ('CAAACTAGATCACGAAAGGTCAAAGTCGAATGAC', 'FXR:RXRa (NR concentration 270 nM, RXRa partner concentration 90 nM)', 5.13),
  ('TCGAGTAGGTTACCAATGGGTCATTCAGCTTTCT', 'FXR:RXRa (NR concentration 270 nM, RXRa partner concentration 90 nM)', 1.16),
  ('GCTATTAGTTGAAAGGGCAACCGCATGATTCTCG', 'FXR:RXRa (NR concentration 270 nM, RXRa partner concentration 90 nM)', 0.581),
  ('CCTACTGGGCCAAAGGTCATTGAGTCCAATGCTC', 'FXR:RXRa (NR concentration 270 nM, RXRa partner concentration 90 nM)', 4.97),
  ('CCTTACGGGTCACTGACAAGTTATAGCATTTGGA', 'FXR:RXRa (NR concentration 270 nM, RXRa partner concentration 90 nM)', 5.46),
  ('ATCGAAAGGTCGACGAGGTCAGTATACACCGTTT', 'FXR:RXRa (NR concentration 270 nM, RXRa partner concentration 90 nM)', 5.54),
  ('CAAACTAGGACACCGGAAGGTCAAAGTCCGCATG', 'FXR:RXRa (NR concentration 270 nM, RXRa partner concentration 90 nM)', 3.19);
